target-entity: T1, human IL-13 R130Q variant (R110Q of the mature chain) (human, UniProt P35225 35-146, Biotinylated on amines (NHS-LC-biotin, 4:1) in ELISA, panning and competition assays. The letters are unchanged.)
T1 construct: R130Q counts from Met 1 of the signal peptide, R110Q on the mature chain; Bought from Peprotech; also called IL-13 R110Q; b-R130Q
T1 sequence (P35225 35-146 limits assumed, stated change not applied): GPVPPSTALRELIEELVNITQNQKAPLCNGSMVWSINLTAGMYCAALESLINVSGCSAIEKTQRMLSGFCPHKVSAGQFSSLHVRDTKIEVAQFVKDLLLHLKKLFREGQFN
procedure-text: SPR (Biacore), purified mAb from HEK293
result-type: Kd (nM)
Expressed in nM, but write only the number.

binder	output-unit	reported
Lc2Hc2 (antibody, V domains shown) VH: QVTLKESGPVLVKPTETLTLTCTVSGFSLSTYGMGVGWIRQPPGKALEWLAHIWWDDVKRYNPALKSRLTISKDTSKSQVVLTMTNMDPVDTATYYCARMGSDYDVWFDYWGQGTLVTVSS VL: DIQMTQSPSSLSASVGDRVTITCRASKSISKYLAWYQQKPGKAPKLLIYSGSTLQSGVPSRFSGSGSGTDFTLTISSLQPEDFATYYCQQHNEYPYTFGQGTKLEIK	nM	0.365
Lc8Hc2 (antibody, V domains shown) VH: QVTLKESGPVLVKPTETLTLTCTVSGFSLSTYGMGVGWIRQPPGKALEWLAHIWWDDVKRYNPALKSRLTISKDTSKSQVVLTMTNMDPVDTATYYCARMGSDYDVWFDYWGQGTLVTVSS VL: DIQMTQSPSTLSASVGDRVTITCRASKSISKYLAWYQQKPGKAPKLLIYSGSTLQSGVPSRFSGSGSGTEFTLTISSLQPDDFATYYCQQHNEYPYTFGQGTRLEIK	nM	0.272
Lc6Hc2 (antibody, V domains shown, also called mAb 62; HFA62) VH: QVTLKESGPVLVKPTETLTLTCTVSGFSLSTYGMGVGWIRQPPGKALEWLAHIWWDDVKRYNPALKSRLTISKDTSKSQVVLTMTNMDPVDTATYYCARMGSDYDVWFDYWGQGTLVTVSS VL: EIVLTQSPATLSLSPGERATLSCRASKSISKYLAWYQQKPGQAPRLLIYSGSTLQSGIPARFSGSGSGTDFTLTISSLEPEDFAVYYCQQHNEYPYTFGQGTKLEIK	nM	0.269
Lc3Hc2 (antibody, V domains shown) VH: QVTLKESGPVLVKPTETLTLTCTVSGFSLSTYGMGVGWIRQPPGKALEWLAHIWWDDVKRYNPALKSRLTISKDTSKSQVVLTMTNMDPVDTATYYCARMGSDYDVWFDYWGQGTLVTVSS VL: AIQLTQSPSSLSASVGDRVTITCRASKSISKYLAWYQQKPGKAPKLLIYSGSTLQSGVPSRFSGSGSGTDFTLTISSLQPEDFATYYCQQHNEYPYTFGGGTKVEIK	nM	0.246

Continue with the next binder.
Challenge: // returns reported Kd for input Lc14Hc2 (antibody, V domains shown) VH: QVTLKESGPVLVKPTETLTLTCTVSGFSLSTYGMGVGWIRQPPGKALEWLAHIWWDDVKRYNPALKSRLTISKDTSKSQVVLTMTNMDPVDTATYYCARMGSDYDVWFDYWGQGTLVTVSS VL: DIQMTQSPSTLSASVGDRVTITCRASKSISKYLAWYQQKPGKAPKLLIYSGSTLQSGVPSRFSGSGSGTEFTLTISSLQPDDFATYYCQQHNEYPYTFGGGTKVEIK
Response given: 0.256

Where do the numbers come from? From patent US20120045438A1.
